test.method.notes: yeast display, Sf9 membrane polyspecificity reagent, FACS + sequencing; frameworks hold sequencing errors
assay.metric: polyreactivity (PSR sort gate)

• QVQLVESGGGLVQAGGSLRLSCAASGSTFPGNSMGWYRQAPGKEMELVAAIDTSGGSTYYADSVKWRFTISRDNAKNTVYLQINSLKPEDTAVYYCAADYLIEMDYWGQGTQVTVSS = low polyreactivity
• QVQLVESGGGLVQAGGSLRFSCAASGSIFWSNAMGWYRQAPGKERELVAAITTSDGSTYYADSVKGRFTISRDNAKNTVYLQMNSLKPEDTAVYYCAADTYYVSYGYYYWGQGTQVTVSS = low polyreactivity
• QVQLVESGGGLVQAGGSLRLSCAASGSIFFYYSMGWYRQAPGKERELVAAISLSGGRTYYADSVKGRSTISRDNAKNTVYLQMNSLKPEDTAVYYCNAASLSGRGQSYHYHGYDYWGQGTQVTVSS = high polyreactivity
• QVQLVESGGGLVQAGGSLRLSCAASGFTIYWYTMVWYRQAPGKERELVAAISRRGGRTYYADSVKGRFTISRDNAKNTVYLQMNSLKPEDTAVYYCAADGTSPVDMNYWGQGTQVTVSS = high polyreactivity
• QVQLGESGGGLVQAGGSLRLSCAASGRTFGPYAMGWYRQAPGKERELVAAIRYIDDSTFYADSVKGRFTISRDTAKNTVYLQMNSLKPEDTAVYYCAARPYPHSAYEGDYWGRGTQVTVSS = low polyreactivity
• QVQLVESGGGLVQAGGSLRLSCAASGFIFPWYAMGWSRQAPGKERELVAIISWDTGSTYYADSVKGRFTISRDNAKNTVYLQMNSLKPEDTAVYYCVAYVGSTYSAPEYYWGQGTQVTVSS = low polyreactivity
• QVQLVESGGGLVQAGGSLRLSCAASGFIFRINAMGWYRQAPGKERELVAAISSSGGSTYYADSVKGRFTISRDNAKNTVYLQMNSLKPEDTAVYYCNAVGTGGYSSEYGYWGQGTQVTVSS = high polyreactivity
• QVQLVESGGGLVQAGGSLRLSCAASGRISDVYVMGWYRQAPGKERELVAAITWSGGDTYYADSVKGRFTISRDNAKNTVYLQMNSLNPEDTAVYYCNADTGKWGGNGWYEFDYWGQGTQVTVSS = low polyreactivity
• QVQLVESGGGLVQAGGSLRLSCAASGSTFITYAMGWYRQAPGKERELVAAIRWSGGGTYYADSVKGRFTISRDTAKNTVYLQMNSLKPEDTAVYYCAADHFNYTTGRDYWGQGTQVTVSS = low polyreactivity
• QVQLVESGGGLVQAGGSLRLSCAASGFIFVDYTMGWYRQAPGKERELVAAITWTGGSTYADSVKGRFTISRDNAKNTVYLQMNSLKPEDTAVYYCAAGQGPDMDYWGQGTQVTVSS = low polyreactivity
• QVQLVESGGGLVQAGGSLRLSCAASGRIFLYYTMGWYRQAPGKERELVADITWRGGYTYYADSVKGRFTISRDNAKNTVYLQMNSLKPQDTAVYYFNAVSVSYKRSDYWGQGTQVTVSS = low polyreactivity
